# run_description: qHTS Assay for Lipid Storage Modulators in Drosophila S3 Cells;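 further: cells counted by Cell Tracker Red CMTPX staining in the red channel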
# conditions: BODIPY lipid droplet fluorescence, 18-24 h, cells fed with added oleic acid; measured here: cell count max response
About 2,100 (0.66%) of roughly 320,000 compounds were called active. Not shown: some 53% with an inconclusive outcome. The sample holds actives, similar compounds and a random draw of the others, so the mix is not that of the screen.
property_label: cell number change (%)

>>> df
                                    compound  reading
 0       COc1ccc(NC(=O)Cc2ccc(C)c(C)c2)cc1Cl    -32.8
 1  CC1CCCCN1C(=O)CSc1nnc2c(n1)[nH]c1ccccc12 (centres undefined)     8.97
 2  CC(C(=O)NC1=NCCS1)N1C(=O)C2CC=CCC2C1=O (centres undefined)    -25.7
 3  CCCOc1ccc(N2C(=O)CC(N3CCN(c4ccccc4F)CC3)C2=O)cc1 (centres undefined)    -7.57
 4  COc1cc(S(=O)(=O)N(Cc2cccnc2)Cc2cccc(OC)c2OC)ccc1-n1cnnn1    -1.62
 5  O=C(O)C1CCCN1C(=O)OCc1ccccc1 (centres undefined)     12.4
 6  CC(C)c1ccc2[nH]c3nc(SCC(=O)N4CCOCC4)nnc3c2c1    -11.8
 7  CC(C)c1ccc2[nH]c3nc(SCC(=O)NC4CC4)nnc3c2c1      8.7
 8  Cc1cccc(C)c1OCc1nnc(SCC(=O)Nc2ccccc2F)o1     -7.4
 9  CCC(OC(=O)c1cccs1)C(=O)NCc1ccc(C)cc1 (centres undefined)   -0.108
10                        O=C(NCCO)c1ccccc1O     26.5
11                      Cc1ccsc1/C=N/n1cnnc1     4.23
12  CN1/C(=C/C=C(/C#N)C(N)=O)C(C)(C)c2ccccc21     13.2
13  CN(C)CCCN(C(=O)c1ccc(S(=O)(=O)N2CCOCC2)cc1)c1nc2ccc(F)cc2s1     15.4
14  CN1/C(=C\C=N\NC(=O)c2ccc(O)cc2)C(C)(C)c2ccccc21    -19.2
15  Cc1cc(C)n(CCC(=O)N=Nc2c(O)[nH]c3ccc(Br)cc23)n1    -11.1
16  COCC(=O)N1CCC(Oc2ccc(C(=O)NCc3cc(C)n(C)n3)cc2)CC1    -3.12
17  CCc1ccc2[nH]c3nc(SCC(=O)NCC4CCCO4)nnc3c2c1 (centres undefined)     8.06
18       COc1ccc(NC2=NC3(CCCCC3)N=C(N)N2)cc1    -9.76
19  CC(NC(=O)C1CCCCC1)C(=O)NC1=NCCS1 (centres undefined)    -6.79
20  CN1/C(=C\C(=O)Nc2ccc(F)cc2)C(C)(C)c2ccccc21    -24.5
21  O=C(NCc1ccc(F)cc1)C1CCCN1C(=O)Nc1ccc(F)cc1 (centres undefined)     12.2
22  NS(=O)(=O)c1ccc(CCNC(=O)c2ccc3c(c2)OCO3)cc1     21.4
23               Cc1sc(-n2cccc2)c(C(=O)O)c1C    -19.7
24                   C=CCNC(=S)/N=c1/ccccn1C     -1.1
25         CCOC(=O)c1c(-n2cccc2)sc2c1CCCC2=O    -2.93
26          O=C(NCCNC(=O)c1ccccc1O)c1ccccc1O    -28.8
27      Cc1ccc(OCC(=O)NCCCNC(=O)c2ccncc2)cc1    0.901
28                O=C(Nc1ccc(F)cc1)N1CCCCCC1     7.77
